What follows is a record of IC50 for KIF18A (Homo sapiens (Human), UniProt Q8NI77).
attribute measured: IC50

[[record]]
molecule = "C[Si]1(C)CCN(c2cnccc2C(=O)Nc2cccc(S(=O)(=O)N3CCC(F)(F)CC3)c2)CC1"
reported = "> 1 µM"

[[record]]
molecule = "Cc1cc(NC(=O)c2ccc(NS(=O)(=O)[C@@H](C)CO)cc2N2CC[Si](C)(C)CC2)nc(N2CCC(F)(F)CC2)n1"
reported = "< 0.1 µM"

[[record]]
molecule = "O=C(Nc1ccnc(C2CCC(F)(F)CC2)n1)c1ccc(NS(=O)(=O)CCO)cc1N1CC[C@]2(C(F)F)C[C@@H]2C1"
reported = "< 0.1 µM"

[[record]]
molecule = "Cc1cc(NC(=O)c2ccc(NS(=O)(=O)NCCO)cc2N2CC[Si](C)(C)CC2)nc(N2CCC(F)(F)CC2)n1"
reported = "0.1 to 0.5 µM"

[[record]]
molecule = "CNS(=O)(=O)Nc1ccc(C(=O)Nc2cc(C)nc(C3CCC(F)(F)CC3)n2)c(N2CC[Si](C)(C)CC2)c1"
reported = "< 0.1 µM"

[[record]]
molecule = "CC(C)(CO)Nc1ccc(C(=O)Nc2cccc(S(=O)(=O)C3CCCC3)c2)c(N2CC[Si](C)(C)CC2)n1"
reported = "> 1 µM"

[[record]]
molecule = "Cc1cc(NC(=O)c2ccc(NS(=O)(=O)CCO)cc2N2CC[C@]3(F)CC[C@@H]3C2)nc(N2CCC(F)(F)CC2)n1 (single isomer, unassigned) [Example 50a]"
reported = "< 0.1 µM"

[[record]]
molecule = "C[Si]1(C)CCN(c2cc(NS(C)(=O)=O)ccc2C(=O)Nc2cccc(OC[C@H](O)C(F)(F)F)n2)CC1"
reported = "< 0.1 µM"

[[record]]
molecule = "Cc1cc(NC(=O)c2ccc(S(=O)(=O)NCCO)cc2N2CC[C@@]3(C(F)F)C[C@H]3C2)nc(N2CCC(F)(F)CC2)n1"
reported = "< 0.1 µM"

[[record]]
molecule = "C[Si]1(C)CCN(c2cc(S(=O)(=O)NCCO)ccc2C(=O)Nc2cccc(OCCC(F)(F)F)n2)CC1"
reported = "< 0.1 µM"

[[record]]
molecule = "Cc1cc(NC(=O)c2cc(F)c(NS(=O)(=O)CCO)cc2N2CC[Si](C)(C)CC2)nc(N2CCC(F)(F)CC2)n1"
reported = "< 0.1 µM"

[[record]]
molecule = "Cc1cc(NC(=O)c2ccc(NS(C)(=O)=O)cc2N2CC[C@]3(C(F)F)C[C@@H]3C2)nc(N2CCC(F)(F)CC2)n1"
reported = "< 0.1 µM"

[[record]]
molecule = "C[Si]1(C)CCN(c2cc(NS(=O)(=O)CCO)c(F)cc2C(=O)Nc2ccnc(N3CCC(F)(F)CC3)n2)CC1"
reported = "< 0.1 µM"


----------
What follows is a record of pIC50 for KIF18A (Homo sapiens (Human), UniProt Q8NI77).
pIC50: −log10 of the molar value.
attribute measured: pIC50

[[record]]
smiles_representation = "CC(C)(C)NS(=O)(=O)c1cccc(NC(=O)c2ccc(NS(=O)(=O)CCO)cc2N2CC[Si](C)(C)CC2)n1"
reported = "> 7.00"

[[record]]
smiles_representation = "C[Si]1(C)CCN(c2cc(S(=O)(=O)NCCO)ccc2C(=O)Nc2cccc(OC[C@H](O)C(F)(F)F)n2)CC1"
reported = "> 7.00"

[[record]]
smiles_representation = "C[Si]1(C)CCN(c2cc(S(=O)(=O)NCCO)ccc2C(=O)Nc2cccc(OC[C@@H](O)C(F)(F)F)n2)CC1"
reported = "> 7.00"

[[record]]
smiles_representation = "C[Si]1(C)CCN(c2cc(NS(=O)(=O)CCO)ccc2C(=O)Nc2ccnc(C3CC3)n2)CC1"
reported = "> 7.00"


----------
# Test system: OVCAR-3 cells
# method: In vitro anti-proliferative activity assay in cancer cell line OVCAR-3 (CellTiter-Glo, 4- or 7-day)
# Format: cell-based
# test context: Homo sapiens, OVCAR-3, 168 h, 7-day assay; read-out: OVCAR-3 cellular antiproliferation assay IC50
Recorded IC50 by entry
attribute measured: IC50

[[record]]
smiles_representation = "O=C(Nc1cccc(N2CCC(F)(F)CC2)n1)c1ccc(NS(=O)(=O)CCO)cc1N1CC[C@@]2(C(F)F)C[C@H]2C1"
reported = "< 100 nM"

[[record]]
smiles_representation = "O=C(Nc1cccc(N2CCC(F)(F)CC2)n1)c1ccc(NS(=O)(=O)CCO)cc1N1CC[C@]2(C(F)F)C[C@@H]2C1"
reported = "< 100 nM"

[[record]]
smiles_representation = "C[Si]1(C)CCN(c2cc(NS(C)(=O)=O)ccc2C(=O)Nc2cccc(OC[C@@H](O)C(F)(F)F)n2)CC1"
reported = "< 100 nM"


----------
# Test system: human megakaryocyte (CFU-MK) progenitors from human bone marrow mononuclear cells
# method: Human megakaryocyte progenitor colony formation assay (CFU-MK)
# Type: cell-based
# test context: 336 h, 14 days culture, adjusted for binding to assay buffer, read-out: Free-fraction adjusted CFU-MK IC50
pIC50: −log10 of the molar value.
attribute measured: pIC50

[[record]]
compound = "Cc1cc(NC(=O)c2cc(F)c(NS(=O)(=O)CCO)cc2N2CC[Si](C)(C)CC2)nc(N2CCC(F)(F)CC2)c1"
attribute_measured = "pIC50"
reported = 7.33

[[record]]
compound = "Cc1cc(NC(=O)c2ccc(NS(=O)(=O)CCO)cc2N2CC[Si](C)(C)CC2)nc(C2CCC(F)(F)CC2)n1"
attribute_measured = "pIC50"
reported = 7.77

[[record]]
compound = "Cc1cc(NC(=O)c2ccc(NS(=O)(=O)CCO)cc2N2CC[C@@]3(C)C[C@H]3C2)nc(N2CCC(F)(F)CC2)n1"
attribute_measured = "pIC50"
reported = 7.09

[[record]]
compound = "Cc1cc(NC(=O)c2ccc(NS(=O)(=O)CCO)cc2N2CC[C@@]3(C(F)F)C[C@H]3C2)nc(N2CCC(F)(F)CC2)n1 (single isomer, unassigned) [Example 29b]"
attribute_measured = "pIC50"
reported = 6.96


----------
Recorded IV Clearance by entry
# method: In vivo pharmacokinetic evaluation in mouse
# Design: species or system female balb/c nude mice
# test context: 3 mg/kg IV
attribute measured: IV Clearance (mL/ming/kg)

[[record]]
compound = "Cc1cc(NC(=O)c2ccc(NS(=O)(=O)CCO)cc2N2CC[C@@]3(C(F)F)C[C@H]3C2)nc(N2CCC(F)(F)CC2)n1 (single isomer, unassigned) [Example 29b]"
result_unit = "mL/ming/kg"
reported = 3.3

[[record]]
compound = "Cc1cc(NC(=O)c2ccc(NS(=O)(=O)CCO)cc2N2CC[Si](C)(C)CC2)nc(N2CCC(F)(F)CC2)n1"
result_unit = "mL/ming/kg"
reported = 1.7

[[record]]
compound = "Cc1cc(NC(=O)c2ccc(NS(=O)(=O)CCO)cc2N2CC[Si](C)(C)CC2)nc(C2CCC(F)(F)CC2)n1"
result_unit = "mL/ming/kg"
reported = 3.6

[[record]]
compound = "Cc1cc(NC(=O)c2ccc(NS(=O)(=O)CCO)cc2N2CCC3(CC2)CC3)nc(N2CCC(F)(F)CC2)n1 [Compound A, reference compound]"
result_unit = "mL/ming/kg"
reported = 4.1

[[record]]
compound = "Cc1cc(NC(=O)c2ccc(NS(=O)(=O)CCO)cc2N2CC[C@@]3(F)CC[C@H]3C2)nc(N2CCC(F)(F)CC2)n1 (single isomer, unassigned) [Example 50b]"
result_unit = "mL/ming/kg"
reported = 0.74


----------
# method: In vivo pharmacokinetic evaluation in mouse
# Set-up: species or system female balb/c nude mice
# test context: female, balb/c nude, plasma, 10 mg/kg PO, read-out: PO T1/2 (converted)
Recorded half-life by entry
attribute measured: half-life (h)

[[record]]
compound = "Cc1cc(NC(=O)c2ccc(NS(=O)(=O)CCO)cc2N2CC[Si](C)(C)CC2)nc(N2CCC(F)(F)CC2)n1"
attribute_measured = "half-life"
result_unit = "h"
reported = 14.5

[[record]]
compound = "Cc1cc(NC(=O)c2ccc(NS(=O)(=O)CCO)cc2N2CC[C@@]3(C(F)F)C[C@H]3C2)nc(N2CCC(F)(F)CC2)n1 (single isomer, unassigned) [Example 29b]"
attribute_measured = "half-life"
result_unit = "h"
reported = 3.7

[[record]]
compound = "Cc1cc(NC(=O)c2ccc(NS(=O)(=O)CCO)cc2N2CC[Si](C)(C)CC2)nc(C2CCC(F)(F)CC2)n1"
attribute_measured = "half-life"
result_unit = "h"
reported = 8.9

[[record]]
compound = "Cc1cc(NC(=O)c2ccc(NS(=O)(=O)CCO)cc2N2CC[C@@]3(F)CC[C@H]3C2)nc(N2CCC(F)(F)CC2)n1 (single isomer, unassigned) [Example 50b]"
attribute_measured = "half-life"
result_unit = "h"
reported = 10.6

